Biological target: Torsin-1A-interacting protein 1 (Homo sapiens) (UniProt Q5JTV8)
Sequence (Q5JTV8 whole entry, looked up): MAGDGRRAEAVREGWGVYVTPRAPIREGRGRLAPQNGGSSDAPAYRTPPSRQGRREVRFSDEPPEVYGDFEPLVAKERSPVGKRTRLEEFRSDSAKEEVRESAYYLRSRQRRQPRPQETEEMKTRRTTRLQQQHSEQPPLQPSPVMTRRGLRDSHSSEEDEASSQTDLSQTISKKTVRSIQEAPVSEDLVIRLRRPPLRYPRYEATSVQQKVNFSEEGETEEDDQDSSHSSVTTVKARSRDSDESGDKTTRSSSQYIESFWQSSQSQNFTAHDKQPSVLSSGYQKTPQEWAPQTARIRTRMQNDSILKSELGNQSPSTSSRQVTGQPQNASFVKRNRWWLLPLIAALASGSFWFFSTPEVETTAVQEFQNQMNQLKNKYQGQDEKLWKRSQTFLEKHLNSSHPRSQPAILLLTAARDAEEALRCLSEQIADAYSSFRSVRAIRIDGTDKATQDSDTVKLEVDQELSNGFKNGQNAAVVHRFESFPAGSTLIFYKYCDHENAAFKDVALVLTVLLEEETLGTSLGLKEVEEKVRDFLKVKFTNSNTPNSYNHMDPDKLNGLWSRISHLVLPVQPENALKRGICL
Experiment: LAP1 binders from COS7 cell lysate, primary screen, small-molecule microarray, 635/667 nm fluorescence (AID 1116)
Conditions: COS7-hLAP1 lysate binding, 635 nm fluorescence, higher = more signal
For each entry below, report its composite z-score value.
Write no unit; give the number alone.

Reported composite z-score, compound `CCCNC(=O)[C@@]1(Sc2ccc(C)cc2)CC(=O)N(C(C)C)[C@@H]1c1ccc(CO)cc1I` : ____
0.669

I'd like to know its composite z-score. The compound in question is `C=CCNC(=O)[C@@H]1[C@H]2C(=O)O[C@H](c3ccccc3)[C@H](c3ccccc3)N2[C@H](c2ccc(O)cc2)[C@@]12C(=O)Nc1ccc(C#CCC(C(=O)OC)C(=O)OC)cc12`
0.411

Need composite z-score of `CN(C)CCCNC(=O)[C@@H]1c2ccccc2C(=O)N(C2CCCCC2)[C@H]1c1ccc(CO)cc1` , thanks.
0.87

Value lookup for composite z-score; key = `COCC(=C=CC[C@H](O)c1cccc(OCCO)c1)C[C@H](O)COCc1ccccc1`
1.58

Name the reported composite z-score value associated with the compound `O=C1N(CCS(=O)(=O)c2ccccc2)Cc2ccccc2[C@@H]2OC(c3ccc(OCCCO)cc3)=N[C@]12CCS(=O)(=O)c1ccccc1`
1.72

Fill in the blank: the reported composite z-score of `COCCCNC(=O)[C@@]1(Sc2ccc(C)cc2)CC(=O)N(C(C)C)[C@@H]1c1ccc(CO)cc1I` is ____.
0.722

What composite z-score value was documented for this compound, `CCOC(=O)C1=C[C@@H](C(C)(C)C)N(S(=O)(=O)c2ccc(C)cc2)[C@H]1c1cccc(Cl)c1` ?
0.715
